Target: Full-length glucokinase (beta cell isoform) (Homo sapiens)
Construct: Full-length glucokinase (beta cell isoform) was His-tagged at N-terminus; His tag (N)
Assay: Glucokinase activation assay (PK/LDH-coupled, NADH depletion at 340 nm)
Conditions: 5 mM glucose, 2.5 mM ATP, pH 7.1, room temperature; values given as a range where N>1
Rule for this label: Y means EC50 is less than 4 µM; N means EC50 is at least 4 µM.

Would you please look over these solved cases?
Cn1ccc(NC(=O)[C@H](CC2CCCC2)n2cnc(C(F)(F)F)cc2=O)n1; N
Cc1cnc(NC(=O)[C@H](CC2CCCC2)n2cnc(C(F)F)cc2=O)cn1; N

[Q] Bench note: check whether O=C(Nc1cnccn1)[C@H](CC1CCCC1)n1ccc(C(F)(F)F)cc1=O shows EC50 below 4 µM
[A] N

[Q] Bench note: check whether O=C(Nc1ccn(Cc2ccccc2)n1)[C@H](CC1CCCC1)n1ccc(C(F)(F)F)cc1=O shows EC50 below 4 µM
[A] N

----------
Biological target: Full-length glucokinase (beta cell isoform) (Homo sapiens, UniProt P35557)
Construct: Full-length glucokinase (beta cell isoform) was His-tagged at N-terminus; His tag (N); made in house
Sequence (P35557 whole entry, canonical isoform): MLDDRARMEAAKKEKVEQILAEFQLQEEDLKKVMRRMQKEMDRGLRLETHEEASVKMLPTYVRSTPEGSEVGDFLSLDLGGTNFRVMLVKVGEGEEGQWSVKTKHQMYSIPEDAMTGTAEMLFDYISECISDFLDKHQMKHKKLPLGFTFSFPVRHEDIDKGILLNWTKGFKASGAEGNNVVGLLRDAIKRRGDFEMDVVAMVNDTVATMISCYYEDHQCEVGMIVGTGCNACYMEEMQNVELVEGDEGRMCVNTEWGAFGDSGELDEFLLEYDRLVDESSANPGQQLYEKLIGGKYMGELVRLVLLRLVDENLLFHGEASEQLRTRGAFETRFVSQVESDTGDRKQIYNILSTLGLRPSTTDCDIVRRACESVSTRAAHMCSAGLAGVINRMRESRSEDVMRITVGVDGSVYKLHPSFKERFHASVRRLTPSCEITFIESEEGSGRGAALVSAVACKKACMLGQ
Assay: Glucokinase activation assay (PK/LDH-coupled, NADH depletion at 340 nm)
Assay type: biochemical
Conditions: 5 mM glucose, 2.5 mM ATP, pH 7.1, room temperature; fitted % max activation; values given as a range where N>1; read-out: Maximum Activation
Structures can show the parent of a compound that is named as a salt.
Recorded Emax for the following molecules
Report as a plain number; the unit % is understood.

Recorded results for 3 molecules are shown here.
Cc1cnc(NC(=O)[C@H](CC2CCCC2)n2cnc(C(F)(F)F)cc2=O)cn1; 130
Cc1ccc(NC(=O)[C@H](CC2CCCC2)n2cnc(C(F)F)cc2=O)nc1; 106
Cn1ccc(NC(=O)[C@H](CC2CCOCC2)n2cc(C(F)(F)F)ccc2=O)n1; 121

[Q] Dear colleague, I am looking for the recorded Emax of the following molecule: O=C(O)Cc1cnc(NC(=O)[C@H](CC2CCCC2)n2cc(C(F)(F)F)ccc2=O)s1 [Example 26, mono acetic acid salt]
[A] 116

----------
Molecular target: Full-length glucokinase (beta cell isoform) (Homo sapiens)
Construct: Full-length glucokinase (beta cell isoform) was His-tagged at N-terminus; His tag (N)
Assay: Glucokinase activation assay (PK/LDH-coupled, NADH depletion at 340 nm)
Settings: 5 mM glucose, 2.5 mM ATP, pH 7.1, room temperature; values given as a range where N>1
Structures can show the parent of a compound that is named as a salt.
Property measured: pEC50
Convention used: pEC50 is expressed as -log10 of the molar concentration.

Recorded results for 5 molecules are shown here.
O=C(O)c1ccc(NC(=O)[C@H](CC2CCCC2)n2cc(C(F)(F)F)ccc2=O)nc1 [Example 28, mono acetic acid salt]; 6.30
Cc1ccc(NC(=O)[C@H](CC2CCCC2)n2cnc(C(F)(F)F)cc2=O)nc1; 5.59
CCOP(=O)(Cc1cnc(NC(=O)[C@H](CC2CCCC2)n2cc(C(F)(F)F)ccc2=O)cn1)OCC; 5.24
CCOC(=O)Cc1cnc(NC(=O)[C@H](CC2CCCC2)n2cc(C(F)(F)F)ccc2=O)s1; 5.54
CCn1ccc(NC(=O)[C@H](CC2CCCC2)n2ccc(C(F)(F)F)cc2=O)n1; 5.03

[Q] Dear colleague, I am looking for the recorded pEC50 of the following molecule: O=C(Nc1ccon1)[C@H](CC1CCCC1)n1cc(C(F)(F)F)ccc1=O
[A] 5.03

[Q] Dear colleague, I am looking for the recorded pEC50 of the following molecule: COc1cnc(NC(=O)[C@H](CC2CCCC2)n2cc(C(F)(F)F)ccc2=O)cn1
[A] 5.92

[Q] Dear colleague, I am looking for the recorded pEC50 of the following molecule: O=C(Nc1ccc2ccccc2n1)[C@H](CC1CCCC1)n1cc(C(F)(F)F)ccc1=O
[A] 6.30

[Q] Dear colleague, I am looking for the recorded pEC50 of the following molecule: COC(=O)c1ccc(NC(=O)[C@H](CC2CCCC2)n2cc(C(F)(F)F)ccc2=O)nc1
[A] 6.70

----------
Target: Full-length glucokinase (beta cell isoform) (Homo sapiens, UniProt P35557)
Construct: Full-length glucokinase (beta cell isoform) was His-tagged at N-terminus; His tag (N); made in house
Experiment: Glucokinase activation assay (PK/LDH-coupled, NADH depletion at 340 nm)
Type: biochemical
Conditions: 5 mM glucose, 2.5 mM ATP, pH 7.1, room temperature; fitted % max activation; values given as a range where N>1; read-out: Maximum Activation
Description: Full-length glucokinase (beta cell isoform) was His-tagged at N-terminus and purified by a Ni column followed by size exclusion chromatography. A 320 mL column was packed in house using Pharmacia Superdex75 preparation grade resin. […] Glucokinase was added to the buffer mixture to initiate the reaction in the presence and absence of compound. The reaction was monitored by absorbance at 340 nm due to the depletion of NADH. […] The percentage of activation was calculated by the following equation: […]
Counter-ions that a name gives are not always drawn.
Recorded Emax for the following molecules
For clarity, give the value followed by its unit.

Recorded results for 3 molecules are shown here.
O=C(Nc1ccon1)[C@H](CC1CCCC1)n1cc(C(F)(F)F)ccc1=O; 103%
O=C(O)c1ccc(NC(=O)[C@H](CC2CCCC2)n2cc(C(F)(F)F)ccc2=O)nc1 [Example 28, mono acetic acid salt]; 147%
COc1cnc(NC(=O)[C@H](CC2CCCC2)n2cc(C(F)(F)F)ccc2=O)cn1; 114%

Switching to the query record.
[Q] Given the entry CCn1ccc(NC(=O)[C@H](CC2CCCC2)n2ccc(C(F)(F)F)cc2=O)n1 , what Emax was observed with Full-length glucokinase (beta cell isoform) (Homo sapiens, UniProt P35557)?
[A] 92%

----------
Recorded Emax for the following compounds
Biological target: Full-length glucokinase (beta cell isoform) (Homo sapiens)
Construct: Full-length glucokinase (beta cell isoform) was His-tagged at N-terminus; His tag (N); made in house
Assay: Glucokinase activation assay (PK/LDH-coupled, NADH depletion at 340 nm)
Assay type: biochemical
Conditions: 5 mM glucose, 2.5 mM ATP, pH 7.1, room temperature; fitted % max activation; values given as a range where N>1; read-out: Maximum Activation
Report as a plain number; the unit % is understood.

O=C(Nc1ccc(C(F)(F)F)cn1)[C@H](CC1CCCC1)n1cc(C(F)(F)F)ccc1=O [Example 17]; 57
Cc1cnc(NC(=O)[C@H](CC2CCCC2)n2cnc(C(F)F)cc2=O)cn1 [Example 35]; 144
CCOP(=O)(Cc1cnc(NC(=O)[C@H](CC2CCCC2)n2cc(C(F)(F)F)ccc2=O)cn1)OCC [Example 29]; 141
Cc1cnc(NC(=O)[C@H](CC2CCCC2)n2cccc(C(F)(F)F)c2=O)cn1 [Example 5]; 0
Cn1ccc(NC(=O)[C@H](CC2CCCC2)n2cc(C(F)(F)F)ccc2=O)n1 [Example 16]; 125

Switching to the query record.
[Q] Dear colleague, I am looking for the recorded Emax of the following compound: O=C(Nc1ccn(Cc2ccccc2)n1)[C@H](CC1CCCC1)n1ccc(C(F)(F)F)cc1=O [Example 30]
[A] 58

----------
Target: Full-length glucokinase (beta cell isoform) (Homo sapiens)
Construct: Full-length glucokinase (beta cell isoform) was His-tagged at N-terminus; His tag (N); made in house
Experiment: Glucokinase activation assay (PK/LDH-coupled, NADH depletion at 340 nm)
Type: biochemical
Conditions: 5 mM glucose, 2.5 mM ATP, pH 7.1, room temperature; fitted % max activation; values given as a range where N>1; read-out: Maximum Activation
Property measured: Emax (%)
Report as a plain number; the unit % is understood.

CCOC(=O)Cc1cnc(NC(=O)[C@H](CC2CCCC2)n2cc(C(F)(F)F)ccc2=O)s1; 84
COC(=O)c1ccc(NC(=O)[C@H](CC2CCCC2)n2cc(C(F)(F)F)ccc2=O)nc1; 84
O=C(Nc1ccc2ccccc2n1)[C@H](CC1CCCC1)n1cc(C(F)(F)F)ccc1=O; 89

[Q] Dear colleague, I am looking for the recorded Emax of the following molecule: O=C(Nc1ccncn1)[C@H](CC1CCCC1)n1ccc(C(F)(F)F)cc1=O
[A] 58

[Q] Dear colleague, I am looking for the recorded Emax of the following molecule: Cn1ccc(NC(=O)[C@H](CC2CCCC2)n2cnc(C(F)(F)F)cc2=O)n1
[A] 106

[Q] Dear colleague, I am looking for the recorded Emax of the following molecule: O=C(Nc1cnccn1)[C@H](CC1CCCC1)n1ccc(C(F)(F)F)cc1=O
[A] 106

[Q] Dear colleague, I am looking for the recorded Emax of the following molecule: O=C(Nc1ccccn1)[C@H](CC1CCCC1)n1cc(C(F)(F)F)ccc1=O
[A] 113

[Q] Dear colleague, I am looking for the recorded Emax of the following molecule: Cc1ccc(NC(=O)[C@H](CC2CCCC2)n2cccc(C(F)(F)F)c2=O)nc1
[A] 0
